Data provenance is patent US7179886B1.

Molecular target: motilin receptor spliced form A (MTL-R1A), human (human, UniProt O43193 1-412)
Sequence (O43193 whole entry, canonical isoform): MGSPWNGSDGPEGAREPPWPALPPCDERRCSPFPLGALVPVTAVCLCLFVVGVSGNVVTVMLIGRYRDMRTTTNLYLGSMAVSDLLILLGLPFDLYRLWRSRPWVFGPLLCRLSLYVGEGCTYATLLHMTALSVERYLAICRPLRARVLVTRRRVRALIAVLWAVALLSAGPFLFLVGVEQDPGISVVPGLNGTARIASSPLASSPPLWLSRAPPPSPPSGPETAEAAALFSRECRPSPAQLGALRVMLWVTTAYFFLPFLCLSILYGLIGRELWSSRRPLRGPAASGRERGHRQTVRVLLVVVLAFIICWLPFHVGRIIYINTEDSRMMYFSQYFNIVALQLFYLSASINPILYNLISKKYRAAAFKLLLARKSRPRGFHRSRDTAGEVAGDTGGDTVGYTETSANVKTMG
Assay: cell-based or functional assay
propertyName: Aequorin Assay (EC50 nM)

{"binder": "FVPIFTHSELQKIREKERNKGQ (peptide, UniProt P19863 1-22, looked up) [canine motilin]", "measurementUnits": "nM", "Aequorin Assay (EC50 nM)": 4.4}

1: FVPIFTYGELQR (peptide, UniProt P12872 26-37, looked up, range 1-12; The range counts on mature motilin, not on the precursor entry) [1-12 MTL]
2: FVPIFTYGELQ (peptide, UniProt P12872 26-36, looked up, range 1-11; The range counts on mature motilin, not on the precursor entry) [1-11 MTL]
// query Please tell me which of the two, 1 or 2 , has the higher reported Aequorin Assay (EC50 nM) value. Pick one and reply with its label.
// result 2
(2: 138 nM, 1: 72 nM)
